- Test system: male spontaneously hypertensive rats (SHR)
- EXPERIMENT_NOTES: Pharmacological Test-1: blood pressure after oral administration in spontaneously hypertensive rats
- Assay type: in vivo, rat
- MEASUREMENT_PARAMETERS: oral, 3 mg/kg, variation of blood pressure 3 hrs. after administration
Task for the reader: assign each of the following compounds its reported Blood Pressure (mmHg) 3 hrs..
Give the number; mmHg is assumed, so skip it.

Name the reported Blood Pressure (mmHg) 3 hrs. value associated with the compound "COc1cc2nc(N3CCN(C(=O)c4cc(C(C)(C)C)c(O)c(C(C)(C)C)c4)CC3)nc(N)c2cc1OC.Cl"
−60

Looking for the measured Blood Pressure (mmHg) 3 hrs. of COc1cc2nc(N3CCN(C(=O)C4COc5ccccc5O4)CC3)nc(N)c2cc1OC (centres unmarked) [Doxa., doxazosin mesilate] , can you help?
−32

Could you share which Blood Pressure (mmHg) 3 hrs. value was measured for COc1cc2nc(N3CCN(C(=O)c4ccccc4)CC3)nc(N)c2cc1OC.Cl [Comp. [C]] ?
−64

Request the reported Blood Pressure (mmHg) 3 hrs. associated with COc1cc2nc(N3CCN(C(=O)c4ccco4)CC3)nc(N)c2cc1OC.Cl [Prazo., prazosin hydrochloride]
−69

Looking for the measured Blood Pressure (mmHg) 3 hrs. of COc1cc2nc(N3CCN(C(=O)c4ccc(O)cc4)CC3)nc(N)c2cc1OC.Cl [Comp. [D]] , can you help?
−6

---

- Test system: male spontaneously hypertensive rats (SHR)
- EXPERIMENT_NOTES: Pharmacological Test-1: blood pressure after oral administration in spontaneously hypertensive rats
- Assay type: in vivo, rat
- MEASUREMENT_PARAMETERS: oral, 1 mg/kg, variation of blood pressure 6 hrs. after administration
Blood Pressure (mmHg) 6 hrs. less than -40 mmHg is Condition met; Blood Pressure (mmHg) 6 hrs. greater than or equal to -40 mmHg is Condition not met.

Would you kindly verify if Blood Pressure (mmHg) 6 hrs. of COc1cc2nc(N3CCN(C(=O)c4ccco4)CC3)nc(N)c2cc1OC.Cl [Prazo., prazosin hydrochloride] is strictly less than -40 mmHg?
Condition met

Field: below-cutoff. Rule: recorded Blood Pressure (mmHg) 6 hrs. strictly less than -40 mmHg. Subject: COc1cc2nc(N3CCN(C(=O)C4COc5ccccc5O4)CC3)nc(N)c2cc1OC (centres unmarked) [Doxa., doxazosin mesilate]
Condition not met

Determine if COc1cc2nc(N3CCN(C(=O)c4ccc(O)cc4)CC3)nc(N)c2cc1OC.Cl [Comp. [D]] shows Blood Pressure (mmHg) 6 hrs. strictly lower than -40 mmHg.
Condition not met
